Recorded values, source patent US6846840B2.

Give measured Log LC50 for each item. Keep answers brief.
tested on: CNS cancer cell lines; settings: log of concentration causing 50% lethality; arithmetic average of six to eight CNS cell lines

Bench note, CNS cancer cell lines: entry CC(=O)OCc1[nH]c2c(c1C)C(=O)C(N1CC1)=C(C)C2=O [Indole 1c] , its Log LC50 = −4.83 moles/liter

Bench note, CNS cancer cell lines: entry CC1=C(N2CC2)C(=O)c2c([nH]c(C)c2C)C1=O [Indole 1a] , its Log LC50 = >−4 moles/liter

Bench note, CNS cancer cell lines: entry CC(=O)OC1CCc2c1[nH]c1c2C(=O)C(C)=C(N2CC2)C1=O (stereo not shown) [Cyclopent[b]indole 3c] , its Log LC50 = −4.7 moles/liter

Bench note, CNS cancer cell lines: entry CC(=O)OC1CCc2c3c(n(C(C)=O)c21)C(=O)C(N1CC1)=C(C)C3=O (stereo not shown) [Cyclopent[b]indole 14] , its Log LC50 = −4.75 moles/liter

Bench note, CNS cancer cell lines: entry CC1=C(N2CC2)C(=O)c2[nH]c3c(c2C1=O)CCC3=O [Cyclopent[b]indole 3e] , its Log LC50 = −5.13 moles/liter

Bench note, CNS cancer cell lines: entry CC1=C(N2CC2)C(=O)c2[nH]c3c(c2C1=O)CCC3O (stereo not shown) [Cyclopent[b]indole 3b] , its Log LC50 = −4.54 moles/liter

Bench note, CNS cancer cell lines: entry CC1=C(N2CC2)C(=O)c2[nH]c(CO)c(C)c2C1=O [Indole 2b] , its Log LC50 = −4.05 moles/liter

Bench note, CNS cancer cell lines: entry CC(=O)OCc1[nH]c2c(c1C)C(=O)C(C)=C(N1CC1)C2=O [Indole 2c] , its Log LC50 = >−4 moles/liter

Bench note, CNS cancer cell lines: entry COC1CCc2c1[nH]c1c2C(=O)C(C)=C(N2CC2)C1=O (stereo not shown) [Cyclopent[b]indole 3d] , its Log LC50 = −4.17 moles/liter

Bench note, CNS cancer cell lines: entry CC1=C(N2CC2)C(=O)c2c([nH]c(CO)c2C)C1=O [Indole 1b] , its Log LC50 = >−4 moles/liter
